Ref: patent US10385065B2

Test system: Staphylococcus aureus ATCC 29213
Assay: MIC, broth microdilution, S. aureus ATCC 29213
Type: cell-based
Conditions: ATCC29213, Table 1, wild type strain, read-out: MIC S. aureus ATCC 29213
Consider the following compounds and their measured MIC readings.

For CCOC(=O)c1ccc(-c2cc3c(cc2F)c2ocnc2c(=O)n3C2CC2)cc1 , what is its reported MIC? > 100 µg/mL

For the compound shown here, CC(=O)c1ccc(-c2ccc3c4ocnc4c(=O)n(C4CC4)c3c2C)nc1 , give the reported MIC. 10 to 100 µg/mL

# input compound: Nc1ccc(-c2cc3c(cc2F)c2ocnc2c(=O)n3C2CC2)cc1F ; wanted: its MIC 1 to 10 µg/mL

Endpoint output: MIC of Cc1nc2c(=O)n(C3CC3)c3c(C)c(-c4cc(F)c(O)cc4F)ccc3c2o1 . Value? < 1 µg/mL

Entry C[C@H]1COc2c(-c3cnc(N)nc3)ccc3c4ocnc4c(=O)n1c23 has what MIC? 1 to 10 µg/mL

Given Cc1c(-c2ccccc2)ccc2c3ocnc3c(=O)n(C3CC3)c12 , state its recorded MIC. 1 to 10 µg/mL

Recorded MIC of Cc1nc2c(=O)n(C3CC3)c3c(C)c(-c4ccc(C(N)=O)cc4)ccc3c2o1 , please. < 1 µg/mL

Requested read-out: MIC. Entry: Cc1nc2c(=O)n(C3CC3)c3c(C)c(-c4ccc(CN)cc4)ccc3c2o1 < 1 µg/mL

Any idea what MIC was measured for Cc1nc2c(=O)n(C3CC3)c3cc(N4CC[C@@H](C(C)(C)N)C4)c(F)cc3c2o1 ? 1 to 10 µg/mL

Returns the measured MIC for the input compound. Input: Cc1nc2c(=O)n(C3CC3)c3cc(-c4ccc(C=O)cc4)c(F)cc3c2o1 10 to 100 µg/mL

MIC lookup needed for Cc1c(-c2cnc(N)nc2)ccc2c3ocnc3c(=O)n(C3CC3)c12 , thanks. < 1 µg/mL

Fill in the blank: the reported MIC of N#Cc1c(F)cc(-c2cc3c(cc2F)c2ocnc2c(=O)n3C2CC2)cc1F is ____. 1 to 10 µg/mL

What MIC value was documented for this compound, Cc1nc2c(=O)n(C3CC3)c3nc(-c4cc(F)c(N)cc4F)c(F)cc3c2o1 ? > 100 µg/mL

Need MIC, item Cc1nc2c(=O)n(C3CC3)c3cc(N4CC[C@H](CN)C4)c(F)cc3c2o1 1 to 10 µg/mL

Endpoint output: MIC of Cc1nc2c(=O)n(C3CC3)c3nc(-c4ccc5[nH]ncc5c4)c(F)cc3c2o1 . Value? > 100 µg/mL

Requested field: MIC. Item: Cc1nc2c(=O)n(C3CC3)c3cc(N4CCC(C(C)N)C4)c(F)cc3c2o1 (centres unmarked) 1 to 10 µg/mL

What MIC value was documented for this compound, Cc1c(-c2ccc3[nH]ncc3c2)ccc2c3scnc3c(=O)n(C3CC3)c12 ? < 1 µg/mL

----------
Test system: S. aureus VRS1 MRSA VAN resistant
Test: MIC, S. aureus VRS1
Format: cell-based
Conditions: Staphylococcus aureus, Table 2
measured.quantity: MIC

Requested read-out: MIC. Entry: Nc1cc(F)c(-c2cc3c(cc2F)c2ocnc2c(=O)n3C2CC2)cc1F < 1 µg/mL

Endpoint output: MIC of CN[C@H](CC(C)C)C(=O)N[C@H]1C(=O)N[C@@H](CC(N)=O)C(=O)N[C@H]2C(=O)N[C@H]3C(=O)N[C@H](C(=O)N[C@H](C(=O)O)c4cc(O)cc(O)c4-c4cc3ccc4O)[C@H](O)c3ccc(c(Cl)c3)Oc3cc2cc(c3O[C@@H]2O[C@H](CO)[C@@H](O)[C@H](O)[C@H]2O[C@H]2C[C@](C)(N)[C@H](O)[C@H](C)O2)Oc2ccc(cc2Cl)[C@H]1O [Vancomycin, reference compound] . Value? 1 to 10 µg/mL

I am curious: what MIC value has been reported for CCOC(=O)CNC(=O)c1ccc(-c2ccc3c4ocnc4c(=O)n(C4CC4)c3c2C)cc1 ? 1 to 10 µg/mL

----------
# MIC per record follows
Test system: S. aureus NRS482 MRSA FQ resistant
Test: MIC, S. aureus NRS482
Format: cell-based
Conditions: Staphylococcus aureus; Table 2

Example cases with answers are listed next.
Consider the compound Cc1c(-c2ccc3[nH]ncc3c2)ccc2c3ocnc3c(=O)n(C3CC3)c12 [Compound 39] and give its measured MIC. < 1 µg/mL

Could you share which MIC value was measured for Cc1c(-c2ccc(C(=O)NCC(=O)O)cc2)ccc2c3ocnc3c(=O)n(C3CC3)c12 [Compound 31] ? > 100 µg/mL

# lookup: MIC of C[C@H]1COc2c(-c3ccc(C(N)=O)cc3)ccc3c4ocnc4c(=O)n1c23 [Compound 96] 1 to 10 µg/mL

Look up MIC: C[C@H]1COc2c(-c3ccc(N)nc3)ccc3c4ocnc4c(=O)n1c23 [Compound 95] 1 to 10 µg/mL

New cases:
GET /values?readout=MIC&item= Cc1c(-c2cc(F)c(CO)cc2F)ccc2c3ocnc3c(=O)n(C3CC3)c12 [Compound 25] < 1 µg/mL

Which MIC reading was recorded for the compound Cc1c(-c2cc(F)c(N)cc2F)ccc2c3ocnc3c(=O)n(C3CC3)c12 [Compound 1] ? < 1 µg/mL

Item under review: Cc1nc2c(=O)n(C3CC3)c3cc(-c4ccc(CN)c(F)c4)c(F)cc3c2o1 [Compound 76] . Reported MIC? 1 to 10 µg/mL

Bench note: what MIC did Cc1nc2c(=O)n3c4c(c(N5CC[C@@H](CN)C5)c(F)cc4c2o1)OC[C@@H]3C [Compound 90] show? 1 to 10 µg/mL

----------
MIC by entry:
System: Haemophilus influenzae ATCC 49247

# annotated cases, reported MIC shown
Which MIC is reported with Haemophilus influenzae ATCC 49247 for this entry: Cc1c(-c2cnc3[nH]ncc3c2)ccc2c3ocnc3c(=O)n(C3CC3)c12 ? < 1 µg/mL

Provide value of MIC for this record tested with Haemophilus influenzae ATCC 49247: Cc1c(-c2ccc(C(=O)NCC(=O)O)cc2)ccc2c3ocnc3c(=O)n(C3CC3)c12 > 100 µg/mL

MIC of Cc1c(-c2cnc(N(C)C)nc2)ccc2c3ocnc3c(=O)n(C3CC3)c12 on Haemophilus influenzae ATCC 49247? 10 to 100 µg/mL

# context switch: different molecule, same MIC
Checklist item: MIC tested on Haemophilus influenzae ATCC 49247, entry Cc1nc2c(=O)n(C3CC3)c3c(C)c(-c4cnn(C5CNC5)c4)ccc3c2o1 , value? 1 to 10 µg/mL

----------
In what follows, each item is paired with its MIC for Haemophilus influenzae ATCC 49247.

Field: example entries. Status: answers known.
Entry Cc1nc2c(=O)n(C3CC3)c3cc(N4CCC(CN)C4)c(F)cc3c2o1 (centres unmarked) : reported MIC = ? 1 to 10 µg/mL

Return reported MIC; argument: O=c1c2ncoc2c2cc(F)c(-c3ccc(O)cc3)cc2n1C1CC1 < 1 µg/mL

Further cases:
Entry Cc1nc2c(=O)n(C3CC3)c3c(C)c(-c4ccc5[nH]ncc5c4)ccc3c2o1 : reported MIC = ? 10 to 100 µg/mL

Fill in the blank: the reported MIC of C[C@H]1COc2c(-c3ccc(N)nc3)ccc3c4ocnc4c(=O)n1c23 is ____. < 1 µg/mL

MIC for Cc1nc2c(=O)n(C3CC3)c3cc(-c4cc(F)c(N)cc4F)c(F)cc3c2o1 ? < 1 µg/mL

Look at this molecule and give its reported MIC. Cc1nc2c(=O)n(C3CC3)c3c(C)c(-c4ccc(C#N)cc4F)ccc3c2o1 10 to 100 µg/mL

// query MIC value for entry NC(=O)c1ccc(-c2cc3c(cc2F)c2ocnc2c(=O)n3C2CC2)cc1 1 to 10 µg/mL

----------
System: Staphylococcus aureus ATCC 29213
Assay: MIC, broth microdilution, S. aureus ATCC 29213
Format: cell-based
Conditions: ATCC 29213 / MSSA, Table 2, read-out: MIC S. aureus (MSSA) ATCC 29213 CLSI control strain
measured.quantity: MIC

Some molecules with known MIC results, for comparison:
Can you share its MIC? I mean this molecule: Cc1nc2c(=O)n(C3CC3)c3c(C)c(-c4cnn(C5CN(C(=O)OC(C)(C)C)C5)c4)ccc3c2o1 1 to 10 µg/mL

# get_value(readout='MIC', item= Cc1nc2c(=O)n(C3CC3)c3cc(N4CCC(C)(N)CC4)c(F)cc3c2o1 ) 1 to 10 µg/mL

What does the record list as MIC for Cc1c(-c2cc(F)c(N)cc2F)ccc2c3oc(=O)[nH]c3c(=O)n(C3CC3)c12 ? 1 to 10 µg/mL

Given Cc1nc2c(=O)n(C3CC3)c3c(C)c(-c4cnn(C5CNC5)c4)ccc3c2o1 , state its recorded MIC. > 100 µg/mL

I am curious: what MIC value has been reported for Cc1c(-c2ccc(N)cc2F)ccc2c3ocnc3c(=O)n(C3CC3)c12 ? < 1 µg/mL

// returns reported MIC for input Cc1nc2c(=O)n(C3CC3)c3c(C)c(-c4cc(F)c(CO)cc4F)ccc3c2o1 < 1 µg/mL

Recorded MIC of Nc1ncc(-c2cc3c(cc2F)c2ocnc2c(=O)n3C2CC2)cn1 , please. 1 to 10 µg/mL

Consider the additional molecule presented here.
Can you share its MIC? I mean this molecule: Cc1c(-c2cnc3[nH]ncc3c2)ccc2c3ocnc3c(=O)n(C3CC3)c12 < 1 µg/mL
